# target-or-test-system: Src kinase, human recombinant (Homo sapiens, UniProt P12931)
# Construct: purchased Sigma-Aldrich (Oakville, ON) S5439; host or cells: insect cells
# Sequence (P12931 whole entry): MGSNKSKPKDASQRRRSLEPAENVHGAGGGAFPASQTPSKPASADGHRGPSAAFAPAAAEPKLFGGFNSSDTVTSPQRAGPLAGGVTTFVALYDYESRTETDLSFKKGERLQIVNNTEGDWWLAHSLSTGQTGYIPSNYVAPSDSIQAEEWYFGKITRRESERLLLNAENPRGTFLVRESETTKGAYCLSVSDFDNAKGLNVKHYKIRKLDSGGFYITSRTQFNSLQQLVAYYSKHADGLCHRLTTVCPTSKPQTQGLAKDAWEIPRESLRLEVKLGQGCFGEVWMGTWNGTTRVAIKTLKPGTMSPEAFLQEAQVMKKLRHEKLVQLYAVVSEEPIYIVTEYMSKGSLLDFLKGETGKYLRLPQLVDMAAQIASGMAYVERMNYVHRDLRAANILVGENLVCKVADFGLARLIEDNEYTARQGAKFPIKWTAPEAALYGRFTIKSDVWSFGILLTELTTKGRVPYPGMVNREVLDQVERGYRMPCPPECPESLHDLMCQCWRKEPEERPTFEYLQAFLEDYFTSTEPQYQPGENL
# protocol: Src PTK inhibition, free and entrapped in GLTES/DGS silica, TR-FRET detection of peptide phosphorylation
# Assay type: biochemical
# condition-info: Src entrapped in GLTES/DGS derived silica; substrate P1716, ATP as in FIG. 29; read-out: IC50 Entrapped in Silica
pIC50: −log10 of the molar value. Ends that are not written are not given here.
quantity-name: pIC50

Look up pIC50: YIYGSFK [YIYGSFK] 2.85 to 3.00

----------
# target-or-test-system: Src kinase, human recombinant (Homo sapiens)
# Construct: purchased Sigma-Aldrich (Oakville, ON) S5439; host or cells: insect cells
# protocol: Src PTK inhibition, free and entrapped in GLTES/DGS silica, TR-FRET detection of peptide phosphorylation
# Assay type: biochemical
# condition-info: free Src in solution; substrate P1716, ATP as in FIG. 29; read-out: IC50 Solution
pIC50: −log10 of the molar value.
quantity-name: pIC50

Look up pIC50: COc1cc2ncnc(Nc3ccc(Oc4ccccc4)cc3)c2cc1OC [Src Kinase Inhibitor I] 6.15 to 6.30

----------
# target-or-test-system: Src kinase, human recombinant (Homo sapiens, UniProt P12931)
# Construct: purchased Sigma-Aldrich (Oakville, ON) S5439; host or cells: insect cells
# protocol: Src PTK inhibition, free and entrapped in GLTES/DGS silica, TR-FRET detection of peptide phosphorylation
# Assay type: biochemical
# condition-info: Src entrapped in GLTES/DGS derived silica; substrate P1716, ATP as in FIG. 29; read-out: IC50 Entrapped in Silica
quantity-name: IC50

Look up IC50: COc1cc2ncnc(Nc3ccc(Oc4ccccc4)cc3)c2cc1OC 0.6 to 0.8 µM

----------
# target-or-test-system: Src kinase, human recombinant (Homo sapiens)
# Construct: purchased Sigma-Aldrich (Oakville, ON) S5439; host or cells: insect cells
# protocol: Src PTK inhibition, free and entrapped in GLTES/DGS silica, TR-FRET detection of peptide phosphorylation
# Type: biochemical
# condition-info: free Src in solution; substrate P1716, ATP as in FIG. 29; read-out: IC50 Solution
pIC50: −log10 of the molar value. Ends that are not written are not given here.
quantity-name: pIC50

Look up pIC50: YIYGSFK [YIYGSFK] 2.92 to 3.10
